# System: Rattus norvegicus
# TEST PROTOCOL: Ulcerogenicity in Wistar albino rat assessed as severity index at 60 mg/kg, po measured after 6 hrs
# Type: toxicity, organism-based
# RUN PARAMETERS: in vivo
Kindly apply the following: class 1 if UI is less than 2, class 0 in every other case.

> print(dat)
                                   compound  qualitative.label
1  COc1cc(OC)cc(C(=O)Nc2ccc3oc(-c4ccc(OC)c(OC)c4)nc3c2)c1            class 0

For the next question, use this compound.
Item COc1ccc(-c2nc3cc(NC(=O)c4ccccc4Cl)ccc3o2)cc1OC : UI beneath 2, strictly? class 1

* * *

# SYSTEM: Prostaglandin G/H synthase 1 (Ovis aries)
# Sequence (P05979 whole entry): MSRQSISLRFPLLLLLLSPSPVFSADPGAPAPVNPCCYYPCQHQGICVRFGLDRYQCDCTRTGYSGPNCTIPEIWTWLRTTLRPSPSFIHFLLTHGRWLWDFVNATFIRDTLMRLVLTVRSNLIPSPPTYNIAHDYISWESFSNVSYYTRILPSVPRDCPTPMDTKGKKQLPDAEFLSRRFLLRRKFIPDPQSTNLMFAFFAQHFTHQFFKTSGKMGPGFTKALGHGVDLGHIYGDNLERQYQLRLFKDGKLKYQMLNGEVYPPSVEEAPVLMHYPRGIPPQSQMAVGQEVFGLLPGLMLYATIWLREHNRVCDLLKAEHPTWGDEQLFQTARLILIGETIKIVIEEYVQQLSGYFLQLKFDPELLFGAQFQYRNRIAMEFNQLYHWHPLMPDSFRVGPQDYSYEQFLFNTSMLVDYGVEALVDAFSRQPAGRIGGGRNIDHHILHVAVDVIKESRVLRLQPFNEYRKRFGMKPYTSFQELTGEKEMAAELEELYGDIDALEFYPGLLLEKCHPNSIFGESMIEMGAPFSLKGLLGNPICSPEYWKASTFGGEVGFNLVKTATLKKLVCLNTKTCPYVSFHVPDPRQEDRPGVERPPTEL
# TEST PROTOCOL: Inhibition of ovine COX1 assessed as reduction in Prostaglandin production by enzyme immunoassay
Each entry below carries its recorded pIC50.
Please report pIC50 as the negative decimal logarithm of the molar concentration, giving only the number.

Some solved entries appear below for comparison.
> print(dat)
                           molecular.string  value.reported
1  COc1ccc(-c2nc3cc(NC(=O)c4ccc(C)cc4)ccc3o2)cc1OC            5.11
2  COc1ccc(C(=O)Nc2ccc3oc(-c4ccc(OC)c(OC)c4)nc3c2)cc1OC            5.09
3  COc1ccc(-c2nc3cc(NC(=O)c4ccc(Cl)cc4)ccc3o2)cc1OC            5.14
4  COc1ccc(-c2nc3cc(NC(=O)c4ccccc4)ccc3o2)cc1OC            5.21
5  COc1ccc(-c2nc3cc(NC(=O)c4ccc(O)cc4)ccc3o2)cc1OC            4.23

Supply pIC50 value. Item: COc1ccc(-c2nc3cc(NC(=O)c4ccc([N+](=O)[O-])cc4)ccc3o2)cc1OC 5.49

Report pIC50 for COc1ccc(-c2nc3cc(NC(=O)c4cccc(Cl)c4)ccc3o2)cc1OC 5.05

For the compound COc1ccc(C(=O)Nc2ccc3oc(-c4ccc(OC)c(OC)c4)nc3c2)cc1 , give its measured pIC50 value. 4.79

Quickly give me recorded pIC50 for COc1ccc(-c2nc3cc(NC(=O)c4ccccc4C)ccc3o2)cc1OC 5.04

Respond only with pIC50 recorded for COc1ccc(-c2nc3cc(NC(=O)c4ccc([N+](=O)[O-])cc4Cl)ccc3o2)cc1OC 5.29

* * *

# Test system: Rattus norvegicus
# TEST PROTOCOL: Anti-inflammatory activity against carrageenan-induced Wistar albino rat paw edema model assessed as paw edema volume at 20 mg/kg, po pretreated for 30 mins followed by carrageenan-challenge measured immediately by plethysmographic method (reference value: 0.7 ml)
# Assay type: functional
Measured Activity, listed per entry.
Provide the measurement as a number trailed by its unit.

Consider the reported Activity for these compounds:
> print(dat)
                           molecular.string  endpoint.name  value.reported
1  COc1ccc(-c2nc3cc(NC(=O)c4cccc([N+](=O)[O-])c4)ccc3o2)cc1OC       Activity         0.57 mL
2  COc1ccc(-c2nc3cc(NC(=O)c4ccc([N+](=O)[O-])cc4)ccc3o2)cc1OC       Activity         0.71 mL
3  COc1cc(OC)cc(C(=O)Nc2ccc3oc(-c4ccc(OC)c(OC)c4)nc3c2)c1       Activity         0.67 mL

Provide the reported Activity (system: Rattus norvegicus) for COc1ccc(-c2nc3cc(NC(=O)c4ccc([N+](=O)[O-])cc4Cl)ccc3o2)cc1OC 0.71 mL

Look up and report Activity, with Rattus norvegicus as system, for COc1ccc(-c2nc3cc(NC(=O)c4ccccc4Cl)ccc3o2)cc1OC 0.66 mL
